Every entry's value here was drawn from ChEMBL document CHEMBL2062472.

Recorded half-life by entry
Test: Apparent half life of the compound in rat plasma by HPLC analysis
Assay type: ADME, cell-free
Settings: read-out: t1/2(app) (converted)

[[record]]
smiles_input = "C[C@@H]1OC(=O)[C@@H]1NC(=O)OCc1ccccc1"
endpoint_name = "half-life"
data_value = "< 10 s"


Q: Which half-life is listed for O=C(N[C@H]1COC1=O)c1ccc2ccccc2c1 ?
Ans: < 10 s

Q: Which half-life is listed for C[C@H]1OC(=O)[C@H]1NC(=O)OC(C)(C)C ?
Ans: 13 s

Q: Which half-life is listed for C[C@@H]1OC(=O)[C@@H]1NC(=O)OCCCCCc1ccccc1 ?
Ans: < 10 s

Q: Which half-life is listed for CCOC(=O)c1ccc2cc(C(=O)N[C@H]3COC3=O)ccc2c1 ?
Ans: 75 s

Q: Which half-life is listed for O=C(CCc1ccccc1)N[C@H]1COC1=O ?
Ans: < 10 s

---

Assay: Apparent half life of the compound in 50% v/v human plasma by HPLC analysis in presence of BNPP
Type: ADME, cell-free
Details: 50% v/v plasma, with BNPP, read-out: t1/2(app)
Endpoint Name: half-life (min)
Write it as a number; the unit min goes unstated.

Q: Which half-life is listed for C[C@@H]1OC(=O)[C@@H]1NC(=O)OC(C)(C)C ?
Ans: 4.7

---

Assay: Apparent half life of the compound in rat plasma by HPLC analysis
Format: ADME, cell-free
Conditions: read-out: t1/2(app) (converted)
Endpoint Name: half-life (s)

Solved cases (3 shown):
[[record]]
molecule = "C[C@@H]1OC(=O)[C@@H]1NC(=O)OC(C)(C)C"
data_value = 11

[[record]]
molecule = "O=C(N[C@H]1COC1=O)c1ccc(OCc2ccccc2)cc1"
data_value = 65

[[record]]
molecule = "O=C(N[C@H]1COC1=O)c1ccc(-c2ccccc2)cc1"
data_value = 32


[1] COc1ccc2cc(C(=O)N[C@H]3COC3=O)ccc2c1
[2] O=C1OCC1CCCCc1ccccc1 (stereo unspecified)
Q: // which entry reports the smaller half-life, 1 or 2 ? Respond with the label that goes with your answer.
Ans: 2

---

Assay: Apparent half life of the compound in 50% v/v rat plasma by HPLC analysis in presence of EDTA
Format: ADME, cell-free
Conditions: 50% v/v plasma, with EDTA, read-out: t1/2(app)
Endpoint Name: half-life (s)
Write it as a number; the unit s goes unstated.

Q: Which half-life is listed for C[C@@H]1OC(=O)[C@@H]1NC(=O)OC(C)(C)C ?
Ans: 20.4

---

Test: Apparent Half life of the compound in 0.01 M phosphate buffer at pH 5 in presence of 3 mM DTT
Details: read-out: t1/2(app)
Endpoint Name: half-life (min)

[[record]]
smiles_input = "O=C(NCc1ccccc1)N[C@H]1COC1=O"
endpoint_name = "half-life"
u = "min"
data_value = 25.1

[[record]]
smiles_input = "O=C(CCc1ccccc1)N[C@H]1COC1=O"
endpoint_name = "half-life"
u = "min"
data_value = 19

[[record]]
smiles_input = "O=C(N[C@H]1COC1=O)OCc1ccccc1"
endpoint_name = "half-life"
u = "min"
data_value = 30.5


[a] O=C(N[C@H]1COC1=O)c1ccc(C(=O)Oc2ccccc2)cc1
[b] C[C@@H]1OC(=O)[C@H]1NC(=O)OC(C)(C)C
Q: // which entry reports the smaller half-life, a or b ? Respond with the label that goes with your answer.
Ans: a
